# assayed_target: Macaca fascicularis IL-36R extracellular domain expressed with a C-terminal myc-myc-hexahistidine tag (Macaca fascicularis)
# method: SPR Biacore T200, mAb captured by anti-hFc, 25C, PBS-T pH 6.0
property_name: t½ (min)
I only need the number, in min, no unit after it.

stdin: For the binder H4H14709P (antibody, human IgG4 S228P, kappa, V domains shown) VH: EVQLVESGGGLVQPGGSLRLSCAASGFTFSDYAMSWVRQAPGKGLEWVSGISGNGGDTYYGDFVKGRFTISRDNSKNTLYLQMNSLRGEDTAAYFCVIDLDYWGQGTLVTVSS VL: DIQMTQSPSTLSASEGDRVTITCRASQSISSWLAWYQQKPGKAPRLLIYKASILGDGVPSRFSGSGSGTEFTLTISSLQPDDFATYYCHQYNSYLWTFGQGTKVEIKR , give its measured t½ value.
stdout: 10
